Data provenance: patent US6444837B1

Test description: XTT-tetrazolium assay of compound toxicity to host cells
Assay type: cell-based
Experimental setup: human; Table IV, six concentrations; read-out: TC50
Measured metric: CC50 at 6 days

// recorded CC50 at 6 days for O=C(O)P(=O)(O)O [Foscarnet, Trisodium phosphonoformate] : > 300 µM
